Taken from patent US10259810B2.

Can you tell me % Activation for the items I'm about to list?
Study target: ΔF508-CFTR (Homo sapiens, UniProt P13569, DEL508-508)
Construct: host or cells: CFBE41o-, doxycycline-inducible
Sequence (P13569 with tags, fused parts or gaps DEL508-508): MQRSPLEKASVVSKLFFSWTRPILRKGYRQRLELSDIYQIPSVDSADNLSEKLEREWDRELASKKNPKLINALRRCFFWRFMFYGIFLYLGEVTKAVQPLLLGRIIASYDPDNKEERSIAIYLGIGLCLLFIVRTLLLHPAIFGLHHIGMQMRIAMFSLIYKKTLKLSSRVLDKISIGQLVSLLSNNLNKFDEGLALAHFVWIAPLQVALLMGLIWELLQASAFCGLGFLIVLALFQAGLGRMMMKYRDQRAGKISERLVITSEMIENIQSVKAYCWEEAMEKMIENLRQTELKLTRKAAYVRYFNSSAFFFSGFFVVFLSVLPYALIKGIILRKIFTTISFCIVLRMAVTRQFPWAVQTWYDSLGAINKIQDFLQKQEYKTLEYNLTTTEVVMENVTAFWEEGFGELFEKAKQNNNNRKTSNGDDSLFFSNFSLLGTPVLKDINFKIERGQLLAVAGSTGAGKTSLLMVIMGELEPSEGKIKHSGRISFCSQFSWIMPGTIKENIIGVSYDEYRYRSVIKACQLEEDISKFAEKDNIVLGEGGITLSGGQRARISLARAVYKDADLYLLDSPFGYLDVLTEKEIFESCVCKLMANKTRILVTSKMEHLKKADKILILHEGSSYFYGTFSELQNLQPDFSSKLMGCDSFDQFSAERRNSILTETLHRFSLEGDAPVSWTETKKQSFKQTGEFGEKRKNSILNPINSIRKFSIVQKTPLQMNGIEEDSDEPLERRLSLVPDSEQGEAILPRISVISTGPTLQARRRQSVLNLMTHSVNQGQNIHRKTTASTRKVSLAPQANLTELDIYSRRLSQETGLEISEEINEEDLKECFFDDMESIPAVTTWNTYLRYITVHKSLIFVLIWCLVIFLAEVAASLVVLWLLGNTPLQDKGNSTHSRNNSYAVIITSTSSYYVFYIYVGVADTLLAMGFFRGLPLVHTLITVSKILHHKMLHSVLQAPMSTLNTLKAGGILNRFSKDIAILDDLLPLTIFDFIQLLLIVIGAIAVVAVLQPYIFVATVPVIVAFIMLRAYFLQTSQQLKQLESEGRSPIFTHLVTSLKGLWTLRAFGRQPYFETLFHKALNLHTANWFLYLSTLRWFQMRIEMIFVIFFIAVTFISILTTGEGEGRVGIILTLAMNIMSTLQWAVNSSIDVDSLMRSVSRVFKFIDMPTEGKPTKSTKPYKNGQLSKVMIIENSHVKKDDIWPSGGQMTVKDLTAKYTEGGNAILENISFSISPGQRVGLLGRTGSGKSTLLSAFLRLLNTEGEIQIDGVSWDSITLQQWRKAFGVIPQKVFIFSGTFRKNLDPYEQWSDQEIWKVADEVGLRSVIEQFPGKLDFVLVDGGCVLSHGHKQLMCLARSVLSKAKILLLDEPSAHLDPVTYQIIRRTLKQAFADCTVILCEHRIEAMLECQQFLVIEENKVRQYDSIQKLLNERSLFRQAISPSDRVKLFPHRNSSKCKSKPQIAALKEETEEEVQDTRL
Protocol details: CFTR cell surface levels using HRP-tagged ΔF508-CFTR expressing CFBE cells, in the presence of a co-corrector
Format: cell-based
Assay setup: HRP-tagged ΔF508-CFTR CFBE cells, in the presence of 3 μM co-corrector
Write down the value, and be sure its unit follows.

Incoming: Any idea what its % Activation is? The compound is COCC1CCN(c2cc(C(=O)NS(=O)(=O)C3CCN(C(=O)OCc4ccccc4)C3)nc3c2c(C2CCC2)nn3-c2ccccc2)CC1 (stereo not drawn)
Outgoing: 485.55%

Incoming: Value lookup for % Activation; key = CC(C)c1nn(-c2ccc(F)cc2)c2nc(C(=O)NS(C)(=O)=O)cc(-c3cnc(N(C)C4CCOCC4)nc3)c12
Outgoing: 435.8%

Incoming: Any idea what % Activation was measured for CCS(=O)(=O)NC(=O)c1cc(N2CCCCC2)c2c(C(C)C)nn(-c3cccc(C)c3)c2n1 ?
Outgoing: 458.75%

====

Study target: CFTR ΔF508 (Homo sapiens, UniProt P13569, DEL508-508)
Construct: bronchial epithelial cells isolated from CF patients homozygous for the CFTR ΔF508 mutation; McGill University; Asterand; University of North Carolina hAEC-CF; host or cells: primary human bronchial epithelial cells from CF patients homozygous for ΔF508, differentiated at air-liquid interface
Protocol details: Chronic TECC assay, primary bronchial epithelial cells of CF patients homozygous for CFTR ΔF508 (corrector, co-corrector and potentiator)
Assay type: cell-based
Assay setup: chronic TECC; AUC = full area under the curve upon forskolin stimulation; read-out: EC50 (nM) (AUC**)
Method: Primary Bronchial Epithelial Cells Protocol The TECC (Tranepithelial Clamp Circuit, EP-design) assay measures the functionality of the cystic fibrosis Transmembrane Conductance regulator (CFTR) by measuring the short circuit current (Isc) generated over the basolateral and apical membrane of lung epithelial cells. In TECC the transepithelial potential PD and transepithelial resistance (Rt) are measured in an open circuit and transformed to Ieq using Ohm's law. […]
Quantity measured: EC50 (nM)
Please state the figure in nM; there is no need to write the unit.

Incoming: Need EC50 of CS(=O)(=O)NC(=O)c1cc(N2CCC(OC3CCCCC3)CC2)c2c(C3CCC3)nn(-c3ccccc3)c2n1 , thanks.
Outgoing: 20

Incoming: GET /values?readout=EC50&item= COCC1CCN(c2cc(C(=O)NS(C)(=O)=O)nc3c2c(C2CCC2)nn3-c2ccccc2)CC1
Outgoing: 45.4

Incoming: What measured EC50 goes with CS(=O)(=O)NC(=O)c1cc(N2CCC(OCC3CC3)CC2)c2c(C3CCC3)nn(-c3ccccc3)c2n1 ?
Outgoing: 27

Incoming: Quick check: EC50 of CS(=O)(=O)NC(=O)c1cc(N2CCC(N3CCOCC3)CC2)c2c(C3CCC3)nn(-c3ccc(F)cc3)c2n1 ?
Outgoing: 45.6

Incoming: Requested read-out: EC50. Entry: CC(C)c1nn(-c2ccnc(N3CCCC3)c2)c2nc(C(=O)NS(C)(=O)=O)cc(-c3ccc(N4CCC(C#N)CC4)cc3)c12
Outgoing: 2.1

====

Could you please report measured % Activation for the items listed next?
Study target: ΔF508-CFTR (Homo sapiens, UniProt P13569, DEL508-508)
Construct: host or cells: CFBE41o-, doxycycline-inducible
Protocol details: CFTR cell surface levels using HRP-tagged ΔF508-CFTR expressing CFBE cells, in the presence of a co-corrector
Assay type: cell-based
Assay setup: HRP-tagged ΔF508-CFTR CFBE cells, in the presence of 3 μM co-corrector
Answer with a number only, understood to be in %.

Incoming: # query: % Activation of entry CN(C)S(=O)(=O)NC(=O)c1cc(N2CCN(c3ccncc3)CC2)c2c(C3CCC3)nn(C3CCCCC3)c2n1 [Compound 469]
Outgoing: 469.4

Incoming: Look up % Activation for this compound: COCCS(=O)(=O)NC(=O)c1cc(-c2ccc(N3CCOCC3)cc2)c2c(OC(C)C)nn(-c3ccccc3)c2n1 [Compound 226]
Outgoing: 392.95

Incoming: Given CS(=O)(=O)NC(=O)c1cc(OCCCN2CCOCC2)c2c(C3CCC3)nn(-c3ccccc3)c2n1 [Compound 281] , state its recorded % Activation.
Outgoing: 398.47

Incoming: Which % Activation value is on record for CS(=O)(=O)NC(=O)c1cc(C2CCN(C3CCC(F)(F)CC3)CC2)c2c(C3CCC3)nn(-c3ccc(F)cc3)c2n1 [Compound 593] ?
Outgoing: 366.7

Incoming: Entry COC(=O)N1CCN(C2CCN(c3cc(C(=O)NS(=O)(=O)N(C)C)nc4c3c(C3CCC3)nn4-c3ccc(F)cc3)CC2)CC1 [Compound 492] has what % Activation?
Outgoing: 483.4

Incoming: Give its % Activation value. Item: CS(=O)(=O)NC(=O)c1cc(N2CCC(S(C)(=O)=O)CC2)c2c(C3CCC3)nn(-c3ccccc3)c2n1 [Compound 190]
Outgoing: 502.4

Incoming: What value of % Activation has been reported for the following compound? CCS(=O)(=O)NC(=O)c1cc(-c2ccc(N3CCOCC3)cc2)c2c(C)nn(-c3ccccc3)c2n1 [Compound 5]
Outgoing: 362.75

Incoming: Would you mind telling me what % Activation value was observed for CNS(=O)(=O)NC(=O)c1cc(N2CCC(N3CCC(OC)CC3)CC2)c2c(C3CCC3)nn(-c3ccc(F)cc3)c2n1 [Compound 629] ?
Outgoing: 546.75

Incoming: Dear colleague, I am looking for the recorded % Activation of the following compound: CCOCC1(F)CCN(c2cc(C(=O)NS(C)(=O)=O)nc3c2c(C2CCC2)nn3-c2ccccc2)CC1 [Compound 501]
Outgoing: 403.55

Incoming: Which % Activation value belongs to COCC1CCN(c2cc(C(=O)NS(=O)(=O)N3CCOCC3)nc3c2c(C2CCC2)nn3-c2ccc(F)cc2)CC1 [Compound 671] ?
Outgoing: 346.1

====

Could you please report measured EC50 for the items listed next?
Study target: ΔF508-CFTR (Homo sapiens, UniProt P13569, DEL508-508)
Construct: host or cells: CFBE41o-, doxycycline-inducible
Protocol details: CFTR cell surface levels using HRP-tagged ΔF508-CFTR expressing CFBE cells, intrinsic corrector capacity
Format: cell-based
Assay setup: HRP-tagged ΔF508-CFTR expressing CFBE41o- cells; compound alone (intrinsic corrector capacity); 20 hours at 33° C.; read-out: EC50
State the answer as a number, implicitly in nM.

Incoming: What value of EC50 has been reported for the following compound? COC1CCN(c2cc(C(=O)NS(C)(=O)=O)nc3c2c(C(C)C)nn3C2CCCCC2)CC1 [Compound 150]
Outgoing: 576

Incoming: // query EC50 value for entry CCCN(C)S(=O)(=O)NC(=O)c1cc(OCC2CCOCC2)c2c(C3CCC3)nn(-c3ccccc3)c2n1 [Compound 354]
Outgoing: 123

Incoming: Endpoint output: EC50 of CC(C)Oc1nn(-c2ccccc2)c2nc(C(=O)NS(=O)(=O)C3CC3)cc(-c3ccc(N4CCOCC4)cc3)c12 [Compound 225] . Value?
Outgoing: 456

Incoming: Requested field: EC50. Item: COCC1CCN(c2cc(C(=O)NS(=O)(=O)CC(=O)OC)nc3c2c(C2CCC2)nn3-c2ccccc2)CC1 [Compound 376]
Outgoing: 117

====

I'd appreciate it if you could supply pEC50 values for the items below.
Study target: ΔF508-CFTR (Homo sapiens, UniProt P13569, DEL508-508)
Construct: host or cells: CFBE41o-, doxycycline-inducible
Protocol details: CFTR cell surface levels using HRP-tagged ΔF508-CFTR expressing CFBE cells, in the presence of a co-corrector
Format: cell-based
Assay setup: HRP-tagged ΔF508-CFTR CFBE cells, in the presence of 3 μM co-corrector; read-out: EC50
Units for pEC50: none; it is -log10 of a concentration expressed in mol/L.

Incoming: Any idea what its pEC50 is? The compound is CC1(S(=O)(=O)NC(=O)c2cc(N3CCC(N4CCOCC4)CC3)c3c(C4CCC4)nn(-c4ccccc4)c3n2)CC1 [Compound 435]
Outgoing: 7.08

Incoming: Returns the measured pEC50 for the input compound. Input: COCC1CCN(c2cc(C(=O)NS(=O)(=O)N3CCC(N4CCC[C@@H]4COC)CC3)nc3c2c(C2CCC2)nn3-c2ccccc2)CC1 [Compound 395]
Outgoing: 6.90

Incoming: Entry CC(C)OC1CCN(c2cc(C(=O)NS(C)(=O)=O)nc3c2c(C2CCC2)nn3-c2ccccc2)CC1 [Compound 151] : reported pEC50 = ?
Outgoing: 6.96

====

Consider the following compounds; for each one, report its EC50.
Study target: CFTR ΔF508 (Homo sapiens, UniProt P13569, DEL508-508)
Construct: bronchial epithelial cells isolated from CF patients homozygous for the CFTR ΔF508 mutation; McGill University; Asterand; University of North Carolina hAEC-CF; host or cells: primary human bronchial epithelial cells from CF patients homozygous for ΔF508, differentiated at air-liquid interface
Protocol details: Chronic TECC assay, primary bronchial epithelial cells of CF patients homozygous for CFTR ΔF508 (corrector, co-corrector and potentiator)
Format: cell-based
Assay setup: chronic TECC; Ieq = calculations based on the maximum current; read-out: EC50 (nM) (Ieq*)

Incoming: Find EC50 (CFTR ΔF508 (Homo sapiens, UniProt P13569, DEL508-508)) for the entry CC(C)c1nn(-c2cccc(N3CCCC3)c2)c2nc(C(=O)NS(C)(=O)=O)cc(-c3ccc(N(C)C4CCOCC4)cc3)c12
Outgoing: < 30 nM

Incoming: Param readout= EC50; system= CFTR ΔF508 (Homo sapiens, UniProt P13569, DEL508-508); entry= CC(C)c1nn(-c2cccc(N3CCOCC3)c2)c2nc(C(=O)NS(C)(=O)=O)cc(-c3ccc(N4CCC(C#N)CC4)nc3)c12 ; returns value.
Outgoing: > 1000 nM

Incoming: Give the reported EC50 for CS(=O)(=O)NC(=O)c1cc(-c2ccc(N3CCC(C#N)CC3)nc2)c2c(C3CCC3)nn(C3CCCCC3)c2n1 (system: CFTR ΔF508 (Homo sapiens, UniProt P13569, DEL508-508)).
Outgoing: < 30 nM
